Target: human PDL1 protein (Octet assay) (human, UniProt Q9NZQ7 19-238)
Sequence (Q9NZQ7 19-238 limits assumed): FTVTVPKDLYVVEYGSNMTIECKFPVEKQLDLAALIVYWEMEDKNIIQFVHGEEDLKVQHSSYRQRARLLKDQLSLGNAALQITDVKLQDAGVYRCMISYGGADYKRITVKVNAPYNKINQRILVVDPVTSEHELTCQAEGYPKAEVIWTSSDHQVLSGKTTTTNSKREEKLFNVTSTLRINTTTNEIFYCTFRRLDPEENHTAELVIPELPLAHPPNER
Assay: Octet; antibody on sensor, PDL1 protein in solution
Method: The Anti-PDL1/SIRPα bispecific protein were characterized for binding affinity against human PDL1 using Octet assay (ForeBio) according to manufacturer's manual, separately. Briefly, the antibodies were coupled on sensors and then the sensors were dipped into PDL1 protein gradients (start at 200 nM, with 2-fold dilution and totally 8 doses). Their binding responses were measured in real-time and results were fit globally.
Observed Property: koff (s⁻¹)
Output spec: scalar in s⁻¹, unitless text.

binder="Anti-PDL1/SIRPα bispecific antibody ES019-020 (bispecific antibody, not shown: small tags and cut ends; a dimerising Fc or GST) light (part 1 of 2): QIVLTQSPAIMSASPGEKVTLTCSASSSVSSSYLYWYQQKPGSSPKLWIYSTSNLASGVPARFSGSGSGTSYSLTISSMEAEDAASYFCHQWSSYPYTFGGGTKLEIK light (part 2 of 2): EVQVVESGGGLVQSGGSLKLSCAGSGFTESAGFMVWHRQVPGKERELVALIATPSGSTNYADSVKGRFTISRDNGKNTVYLQMNSLKPEDTAVYYCNIRGYWGQGTLVTVSS heavy: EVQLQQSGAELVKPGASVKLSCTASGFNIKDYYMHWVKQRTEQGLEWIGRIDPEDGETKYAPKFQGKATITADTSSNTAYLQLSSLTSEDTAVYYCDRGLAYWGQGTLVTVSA" measured_number=0.00509

From here, focus on the item given below.
Query: Read the entry Anti-PDL1/SIRPα bispecific antibody ES019-025 (bispecific antibody, not shown: CL; linker; CH1-Fc) light: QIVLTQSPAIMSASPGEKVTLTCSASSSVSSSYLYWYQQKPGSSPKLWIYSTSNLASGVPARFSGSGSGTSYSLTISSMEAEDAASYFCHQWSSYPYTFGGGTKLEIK heavy (part 1 of 2): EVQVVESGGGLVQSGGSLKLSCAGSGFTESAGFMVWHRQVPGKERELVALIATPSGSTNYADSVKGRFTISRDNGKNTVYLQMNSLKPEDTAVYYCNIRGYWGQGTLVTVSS heavy (part 2 of 2): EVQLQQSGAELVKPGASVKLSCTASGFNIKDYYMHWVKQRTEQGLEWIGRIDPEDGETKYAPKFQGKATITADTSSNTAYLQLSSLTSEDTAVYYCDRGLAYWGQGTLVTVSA and write its reported koff.
Reply: 0.00604
